System: Peritoneal exudate cells (PEC) from guinea pig
PROCEDURE_TEXT: Macrophage Migration Inhibitory Factor (MIF) assay, nonspecific inhibition of macrophage migration
Type: cell-based, Hartley strain guinea pigs
ASSAY_SETUP: 0.5 nmoles/ml; less than 20% considered insignificant
Where no end group is shown, it is not given here.
Label scheme for PNSI (percent nonspecific inhibition of macrophage migration): lower than 20% is False, 20% and above is True.

INSERT INTO assay_data (substance, assayed_target, assigned_category) VALUES
  ('Synthetic thymosin β4: synthetic thymosin β4, tested beside natural thymosin β4 in the MIF assay (SDKPDMAEIEKFDKSKLKKTETQEKNPLPSKETIEQEKQAGES; Thymosin beta-4 synthetic; UniProt P62328 2-44, looked up) [reference compound]', 'Peritoneal exudate cells (PEC) from guinea pig', 'True'),
  ('KQAGES [C6 β4]', 'Peritoneal exudate cells (PEC) from guinea pig', 'False'),
  ('QAGESDEITAKT [C12 β3]', 'Peritoneal exudate cells (PEC) from guinea pig', 'True'),
  ('IEQEKQQAGES [C10 β4]', 'Peritoneal exudate cells (PEC) from guinea pig', 'True'),
  ('QEKQAGES [C8 β4]', 'Peritoneal exudate cells (PEC) from guinea pig', 'True');
